All figures here come from ChEMBL document CHEMBL1134920.

Examples of molecules with documented clearance follow.
test: Plasma clearance in rat; assay type: ADME, organism-based; settings: read-out: Clp
assayEndpoint: clearance

smilesdata=O=C(O)[C@@H](C1CCCCC1)N1C[C@H](CN2CCC(CCCc3ccccc3)CC2)[C@@H](c2ccccc2)C1 assayendpoint=clearance observed="17.6 mL/min/kg"
smilesdata=CC(C)[C@H](C(=O)O)N1C[C@H](CN2CCC(c3ccc(F)cc3)CC2)[C@@H](c2ccccc2)C1 assayendpoint=clearance observed="68.3 mL/min/kg"
smilesdata=O=C(O)[C@@H](CC1CCC1)N1C[C@H](CN2CCC(CCCc3ccccc3)CC2)[C@@H](c2ccccc2)C1 assayendpoint=clearance observed="26.5 mL/min/kg"
smilesdata=O=C(O)[C@@H](C1CCCCC1)N1C[C@H](CN2CCC(O)(CCCc3ccccc3)CC2)[C@@H](c2ccccc2)C1 assayendpoint=clearance observed="128 mL/min/kg"
